Test system: UniProt:P04150
Sequence (P04150 whole entry): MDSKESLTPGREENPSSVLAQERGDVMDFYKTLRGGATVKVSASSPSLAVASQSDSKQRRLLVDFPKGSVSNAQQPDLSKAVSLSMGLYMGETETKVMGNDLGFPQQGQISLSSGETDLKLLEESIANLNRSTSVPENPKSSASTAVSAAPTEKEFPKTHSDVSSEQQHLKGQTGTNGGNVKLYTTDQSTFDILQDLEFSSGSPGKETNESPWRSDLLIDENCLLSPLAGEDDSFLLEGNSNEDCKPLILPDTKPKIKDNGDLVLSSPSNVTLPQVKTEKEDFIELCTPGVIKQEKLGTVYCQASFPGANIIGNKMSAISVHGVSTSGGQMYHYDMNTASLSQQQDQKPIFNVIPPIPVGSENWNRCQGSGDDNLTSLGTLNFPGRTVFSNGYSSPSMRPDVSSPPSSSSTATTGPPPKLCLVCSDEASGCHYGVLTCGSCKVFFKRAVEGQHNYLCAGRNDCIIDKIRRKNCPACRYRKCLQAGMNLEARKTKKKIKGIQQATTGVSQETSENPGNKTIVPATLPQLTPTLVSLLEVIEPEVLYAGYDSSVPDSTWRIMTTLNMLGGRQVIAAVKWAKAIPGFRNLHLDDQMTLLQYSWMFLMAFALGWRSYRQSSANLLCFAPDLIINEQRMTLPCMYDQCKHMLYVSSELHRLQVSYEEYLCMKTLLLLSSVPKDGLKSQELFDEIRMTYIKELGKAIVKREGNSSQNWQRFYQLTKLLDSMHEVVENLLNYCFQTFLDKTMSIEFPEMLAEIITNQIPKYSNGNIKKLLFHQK
Assay details: Transrepression activity at glucocorticoid receptor in human NHDF cells assessed as inhibition of IL-1beta-stimulated AP1 dependent IL-6 repression by ELISA relative to Dexamethasone
Assay type: cell-based
Set-up: concentration or dose not given beside the values
Measurement type: Activity (%)
Answer format: numeric, % implied, no suffix.

Short answer for Cc1c[nH]c2c(-c3c(F)cc4c(c3F)/C(=N/OC(C)(C)C)CC(C)(C)N4)cccc12 : Activity was 73

Short answer for CC1(C)C/C(=N\OC(C)(C)C)c2c(cc(F)c(-c3cccc4cc[nH]c34)c2F)N1 : Activity was 57

Short answer for Cc1c[nH]c2c(-c3c(F)cc4c(c3F)/C(=N/OC(C)C)CC(C)(C)N4)cccc12 : Activity was 77

Short answer for Cc1c[nH]c2c(-c3c(F)cc4c(c3F)/C(=N/OC(C)(C)CO)CC(C)(C)N4)cccc12 : Activity was 67

Short answer for CCO/N=C1/c2c(cc(F)c(-c3cccc4c(C)c[nH]c34)c2F)NC(C)(C)C1O (racemic) : Activity was 97

Short answer for CC1(C)C/C(=N\OC(C)(C)C)c2c(cc(F)c(-c3cccc4c(Cl)c[nH]c34)c2F)N1 : Activity was 83

Short answer for C[C@H]1c2c(cc(F)c(-c3cccc4cc[nH]c34)c2F)NC(C)(C)[C@@H]1O : Activity was 90

Short answer for CO/N=C1/c2c(cc(F)c(-c3cccc4c(Cl)c[nH]c34)c2F)NC(C)(C)C1O (centres undefined) : Activity was 99

Short answer for CO/N=C1/c2c(cc(F)c(-c3cccc4c(C)c[nH]c34)c2F)NC(C)(C)C1O (racemic) : Activity was 98
